I'd be grateful if you could share measured Kd for these entries.
Molecular target: T1, cynomolgus monkey BCMA (cynomolgus monkey, UniProt A0A2K5UD97 1-53)
T1 construct: Soluble analyte in SPR; construct not described; also called cyBCMA; Cyno BCMA
T1 sequence (A0A2K5UD97 entry or part of it): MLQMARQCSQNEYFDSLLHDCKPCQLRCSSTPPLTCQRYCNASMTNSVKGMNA
Experiment: SPR, IgG on chip, cyBCMA analyte

>>> meas_value("A02_Rd4_6nM_C08 (antibody, V domains shown, IgG) VH: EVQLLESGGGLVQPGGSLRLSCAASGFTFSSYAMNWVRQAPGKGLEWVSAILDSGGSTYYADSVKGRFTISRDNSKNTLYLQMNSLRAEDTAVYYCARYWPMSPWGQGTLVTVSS VL: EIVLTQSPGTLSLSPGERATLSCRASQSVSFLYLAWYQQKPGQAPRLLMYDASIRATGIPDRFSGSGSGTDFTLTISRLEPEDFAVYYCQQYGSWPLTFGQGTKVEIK")
"5.07 nM"

Here's the next entry for you.
Give the measured Kd for C01_Rd4_6nM_C24 (antibody, V domains shown, IgG) VH: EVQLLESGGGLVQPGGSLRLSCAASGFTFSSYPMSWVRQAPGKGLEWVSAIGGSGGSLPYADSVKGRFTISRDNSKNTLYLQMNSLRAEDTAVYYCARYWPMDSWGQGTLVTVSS VL: EIVLTQSPGTLSLSPGERATLSCRASQSVSPEYLAWYQQKPGQAPRLLIYDASSRAPGIPDRFSGSGSGTDFTLTISRLEPEDFAVYYCQQYSVWPLTFGQGTKVEIK
0.281 nM
